- Tested on: Escherichia coli TOP10;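 note: peptides expressed intracellularly from a pBAD plasmid library in pooled LB shake-flask culture, induced with 0.3% L-arabinose, DNA abundance read by NGS, three biological replicates, DESeq2 with apeglm shrinkage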
- method_description: shrunken log2 fold change of peptide-encoding DNA abundance (4.5 h post-induction vs induction); higher = less antimicrobial activity (less host growth inhibition)
- measurement_parameters: time post-induction: 4.5 h; library: site-saturation at positions 5, 18, 19, 20
property: shrunken log2 fold change

INSERT INTO assay_data (residue_codes, property, assay_value) VALUES
  ('RRIRVRPPRLPRPRPRPKSYPRP', 'shrunken log2 fold change', -0.425),
  ('RRIRDRPPRLPRPRPRPSTNPRP', 'shrunken log2 fold change', -0.16),
  ('RRIRCRPPRLPRPRPRPHYHPRP', 'shrunken log2 fold change', -0.755),
  ('RRIRFRPPRLPRPRPRPQIYPRP', 'shrunken log2 fold change', -1.01),
  ('RRIRDRPPRLPRPRPRPYLMPRP', 'shrunken log2 fold change', -0.187),
  ('RRIRMRPPRLPRPRPRPCENPRP', 'shrunken log2 fold change', 0.0192),
  ('RRIRARPPRLPRPRPRPVGRPRP', 'shrunken log2 fold change', 0.691),
  ('RRIRRRPPRLPRPRPRPHYMPRP', 'shrunken log2 fold change', -0.126),
  ('RRIRARPPRLPRPRPRPNGGPRP', 'shrunken log2 fold change', -0.01),
  ('RRIRIRPPRLPRPRPRPHDHPRP', 'shrunken log2 fold change', -0.174),
  ('RRIRIRPPRLPRPRPRPQQRPRP', 'shrunken log2 fold change', -0.104),
  ('RRIRTRPPRLPRPRPRPMTCPRP', 'shrunken log2 fold change', -0.0817),
  ('RRIRFRPPRLPRPRPRPMEQPRP', 'shrunken log2 fold change', -0.00146),
  ('RRIRYRPPRLPRPRPRPYCNPRP', 'shrunken log2 fold change', -0.515),
  ('RRIRWRPPRLPRPRPRPSKTPRP', 'shrunken log2 fold change', 0.0507);
